test: qHTS for differential inhibitors of proliferation of Plasmodium falciparum line 3D7 (AID 1876); details: P. falciparum 3D7 proliferation inhibition; series mostly up to 28.7 µM
Inconclusive results are not listed. The source made the active and inactive calls. Calls come from the whole dose curve; as a rule, active = well fitted curve in the direction sought with a large enough effect; inconclusive = small, poorly fitted or top-dose-only effect, or another doubt; inactive = no such curve, though single readings can be large or run the other way.
Tick one outcome: active, inactive

Record excerpt, results attached:
>>> cat("CN1CCN(CCCN2c3ccccc3Sc3ccc(Cl)cc32)CC1")
"active"
>>> cat("N[C@@H](Cc1c[nH]c2ccc(O)cc12)C(=O)O")
"inactive"
>>> cat("NC(CO)C(=O)NNCc1ccc(O)c(O)c1O (configuration not stated)")
"inactive"

Test call, this compound: CCOC(=O)c1ncn2c1CN(C)C(=O)c1cc(F)ccc1-2
inactive

Record lookup: outcome of this test for CN1C(C(=O)Nc2ccccn2)=C(O)c2ccccc2S1(=O)=O ?
inactive
